tested on: velvetleaf (Abutilon theophrasti); test: Test B pre/postemergence; assay type: in vivo; details: Preemergence, 500 g ai/ha; scale 0 to 100 (0 no effect, 100 complete control)
MEASURED PARAMETER: Velvetleaf plant response rating
Just the number, please, no unit after it.

The examples below pair each entry with its known result.
compound=CCCCOC(=O)c1nc(C2CC2)nc(N)c1Br measured_parameter="Velvetleaf plant response rating" experimental_value=100
compound=CCOC(=O)c1nc(-c2ccc(Cl)cc2)nc(N)c1Br measured_parameter="Velvetleaf plant response rating" experimental_value=80
compound="CCOC(=O)C(C)c1nc(C2CC2)nc(N)c1Br (stereo not drawn)" measured_parameter="Velvetleaf plant response rating" experimental_value=80
compound=CCOC(=O)C(Cl)(Cl)c1nc(C2CC2)nc(N)c1Br measured_parameter="Velvetleaf plant response rating" experimental_value=60
compound=COC(OC)c1nc(C2CC2)nc(N)c1F measured_parameter="Velvetleaf plant response rating" experimental_value=20

Turning now to a further record.
query: Recorded Velvetleaf plant response rating of CCOC(=O)C(Cl)c1nc(C2CC2)nc(N)c1Br (stereo not drawn) , please.
result: 90

---

System: rice (Oryza sativa)
Assay: Test B flooded paddy test
Type: in vivo
Settings: Oryza sativa, Flood, 500 g ai/ha; scale 0 to 100; read-out: Plant response rating, Rice
Procedure: At the same time, plants selected from these crop and weed species and also blackgrass (Alopecurus myosuroides) and wild oat (Avena fatua) were treated with postemergence applications of test chemicals formulated in the same manner. Plants ranged in height from 2 to 18 cm (1- to 4-leaf stage) for postemergence treatments. […] Treated plants and controls were maintained in a greenhouse for 13 to 15 days, after which time all species were compared to controls and visually evaluated. […]
MEASURED PARAMETER: plant injury at 500 g/ha

query: Enter reported plant injury at 500 g/ha observed with rice (Oryza sativa) for Nc1nc(-c2ccc(Br)cc2)nc(C(=O)O)c1Cl [Compound 95]
result: 40%

query: Enter reported plant injury at 500 g/ha observed with rice (Oryza sativa) for CCOC(=O)c1nc(-c2ccc(Cl)cc2)nc(N)c1Cl [Compound 64]
result: 0%

query: Enter reported plant injury at 500 g/ha observed with rice (Oryza sativa) for COC(=O)c1nc(-c2ccc(Cl)cc2)nc(N)c1Cl [Compound 58]
result: 0%

query: Enter reported plant injury at 500 g/ha observed with rice (Oryza sativa) for COC(=O)c1nc(C2CC2)nc(N)c1OC [Compound 59]
result: 0%

query: Enter reported plant injury at 500 g/ha observed with rice (Oryza sativa) for Nc1nc(C2CC2)nc(C(=O)OCc2ccccc2)c1Cl [Compound 78]
result: 40%

query: Enter reported plant injury at 500 g/ha observed with rice (Oryza sativa) for COC(=O)c1nc(-c2ccc(Br)cc2)nc(N)c1Cl [Compound 96]
result: 0%

query: Enter reported plant injury at 500 g/ha observed with rice (Oryza sativa) for Nc1nc(C2CC2)nc(C(=O)[O-])c1Br.[Na+] [Compound 113, monosodium salt]
result: 0%

---

test system: morningglory (Ipomoea coccinea); experiment: Test B pre/postemergence; format: in vivo; conditions: Postemergence, 500 g ai/ha; scale 0 to 100
MEASURED PARAMETER: Plant response rating, Morningglory
Just the number, please, no unit after it.

compound=COC(=O)Cc1nc(C2CC2)nc(N)c1Br measured_parameter="Plant response rating, Morningglory" experimental_value=70
compound=CCCOC(=O)c1nc(C2CC2)nc(N)c1Br measured_parameter="Plant response rating, Morningglory" experimental_value=100
compound="CCOC(=O)C(Cl)c1nc(C2CC2)nc(N)c1Br (centres unmarked)" measured_parameter="Plant response rating, Morningglory" experimental_value=70
compound=CC=NNc1nc(C2CC2)nc(C(=O)OC)c1Br measured_parameter="Plant response rating, Morningglory" experimental_value=100

query: Recorded Plant response rating, Morningglory of Nc1nc(C2CC2)nc(C=NO)c1Br , please.
result: 90

query: Recorded Plant response rating, Morningglory of CC(C)OC(=O)c1nc(C2CC2)nc(N)c1Br , please.
result: 100

---

Known Flatsedge, Rice plant response rating of a selection of molecules
tested on: rice flatsedge (Cyperus iria); test: Test E flooded paddy water application; format: in vivo; conditions: 125 g ai/ha; Flood; 21 days; scale 0 to 100 (0 no effect, 100 complete control)
Just the number, please, no unit after it.

The examples below pair each entry with its known result.
smiles_text=CCOC(=O)c1nc(-c2ccc(Cl)cc2F)nc(N)c1Br experimental_value=100
smiles_text=CCOC(=O)c1nc(-c2ccc(Cl)cc2Cl)nc(N)c1Cl experimental_value=100
smiles_text=CCOC(=O)c1nc(-c2ccc(Cl)cc2Cl)nc(N)c1Br experimental_value=60
smiles_text=CCOC(=O)c1nc(-c2ccc3c(c2)OCO3)nc(N)c1Cl experimental_value=90

Turning now to a further record.
query: Recorded Flatsedge, Rice plant response rating of CCOC(=O)c1nc(-c2ccc(OC)cc2)nc(N)c1Cl , please.
result: 100

---

test system: duck salad (Heteranthera limosa); assay: Test B flooded paddy test; assay type: in vivo; details: Flood, 1000 g ai/ha; scale 0 to 100
MEASURED PARAMETER: Plant response rating, Ducksalad
Just the number, please, no unit after it.

smiles_text=CCOC(=O)c1nc(-c2ccc(Cl)cc2)nc(N)c1Br experimental_value=100

query: Recorded Plant response rating, Ducksalad of CON=Cc1nc(C2CC2)nc(N)c1Br , please.
result: 20

query: Recorded Plant response rating, Ducksalad of CCOC(=O)Cc1nc(C2CC2)nc(N=CN(C)C)c1Br , please.
result: 0

query: Recorded Plant response rating, Ducksalad of CCOC(=O)Cc1nc(C2CC2)nc(N)c1Br , please.
result: 20

query: Recorded Plant response rating, Ducksalad of CCOC(=O)c1nc(C2CC2)nc(NCCOC)c1Br , please.
result: 0

---

tested on: velvetleaf (Abutilon theophrasti); assay: Test C pre/postemergence; format: in vivo; details: Postemergence, 125 g ai/ha; scale 0 to 100 (0 no effect, 100 complete control)
MEASURED PARAMETER: Velvetleaf plant response rating
Just the number, please, no unit after it.

The examples below pair each entry with its known result.
smiles_text=CC(=O)NN=Cc1nc(C2CC2)nc(N)c1Br tested_system="velvetleaf (Abutilon theophrasti)" measured_parameter="Velvetleaf plant response rating" experimental_value=20
smiles_text=CCCOC(=O)c1nc(C2CC2)nc(N)c1Br tested_system="velvetleaf (Abutilon theophrasti)" measured_parameter="Velvetleaf plant response rating" experimental_value=70
smiles_text=CC(C)COC(=O)c1nc(C2CC2)nc(N)c1Br tested_system="velvetleaf (Abutilon theophrasti)" measured_parameter="Velvetleaf plant response rating" experimental_value=80
smiles_text=CCCCOC(=O)c1nc(C2CC2)nc(N)c1Cl tested_system="velvetleaf (Abutilon theophrasti)" measured_parameter="Velvetleaf plant response rating" experimental_value=95

query: Recorded Velvetleaf plant response rating of CCOC(=O)c1nc(-c2ccc(Cl)cc2)nc(N)c1Br , please.
result: 85

---

system: crabgrass (Digitaria sanguinalis); assay: Test B pre/postemergence; type: in vivo; settings: Digitaria sanguinalis, post-emergence, Postemergence, 125 g ai/ha; scale 0 to 100 (0 no effect, 100 complete control); read-out: Crabgrass plant response rating
Think of 20% as a floor: if pest or weed control at 125 g/ha stands on it or above, it is True; beneath it, False.

compound="Nc1nc(C2CC2)nc(C(=O)[O-])c1Cl.[Na+] [Compound 77, monosodium salt]" class_label=True
compound=Nc1nc(C2CC2)nc(C(=O)OCc2ccccc2)c1Br class_label=True
compound=CCOC(=O)c1nc(C(C)(C)C)nc(N)c1Br class_label=False
compound=Nc1nc(C2CC2)nc(C(=O)OCc2ccccc2)c1Cl class_label=True

Then there is this compound:
query: pest or weed control at 125 g/ha >= 20% for COC(=O)c1nc(-c2ccccc2)nc(N)c1Br ?
result: False

---

system: kochia (Kochia scoparia); experiment: Test C pre/postemergence; type: in vivo; conditions: Bassia scoparia, pre-emergence, Preemergence, 250 g ai/ha; scale 0 to 100; read-out: Plant response rating, Kochia
From the text: […]
MEASURED PARAMETER: pest or weed control at 250 g/ha (%)
The reply should contain only the number, in %.

The examples below pair each entry with its known result.
molecule="CCOC(=O)c1nc(-c2ccc(Cl)cc2)nc(N)c1Cl [Compound 64]" tested_system="kochia (Kochia scoparia)" uom=% experimental_value=70
molecule="CCOC(=O)c1nc(C2CC2)nc(N)c1Br [Compound 1]" tested_system="kochia (Kochia scoparia)" uom=% experimental_value=100
molecule="CCOC(=O)c1nc(C2CC2)nc(N)c1F [Compound 30]" tested_system="kochia (Kochia scoparia)" uom=% experimental_value=90

Turning now to a further record.
query: Recorded pest or weed control at 250 g/ha of COC(=O)c1nc(C2CC2)nc(N)c1Br [Compound 2] , please.
result: 100

From: patent US8802597B2
